The measurements presented in this section are drawn from patent US10874743B2.

target: IRAK4 (Homo sapiens); assay: OCI-LY-10 degradation assay (western blot, % IRAK4 degraded after 4 hours); assay type: cell-based; design: endogenous in cells; host or cells: OCI-LY10; details: OCI-LY10 cells, 4 hours, 1 uM compound
experimental readout: OCI-LY10 % IRAK4 Degradation (1 uM)

| compound | target or system | result |
| --- | --- | --- |
| CN(CCCc1ccc2c(c1)C(=O)N(C1CCC(=O)NC1=O)C2=O)Cc1ccc(-n2cc(NC(=O)c3coc(-c4ccnc(NCC(F)(F)F)c4)n3)c(C(F)F)n2)cc1 (centres unmarked) | IRAK4 (Homo sapiens) | B (>20-50% degradation) |
| O=C1CCC(N2C(=O)c3cccc(NCCNCCOCCNC(=O)c4ccc(-n5cc(NC(=O)c6coc(-c7ccnc(NCC8CC8)c7)n6)c(C(F)(F)F)n5)cc4)c3C2=O)C(=O)N1 (centres unmarked) | IRAK4 (Homo sapiens) | A (>50% degradation) |
| NC(=O)c1nn(-c2ccc(CNCCCCCCCCCc3cccc4c3C(=O)N(C3CCC(=O)NC3=O)C4=O)cc2)cc1NC(=O)c1coc(-c2ccnc(NCC3CC3)c2)n1 (centres unmarked) | IRAK4 (Homo sapiens) | B (>20-50% degradation) |
| NC(=O)c1nn(-c2ccc(C(=O)NCCOCCOCCOCCOCC#Cc3cccc4c3C(=O)N(C3CCC(=O)NC3=O)C4=O)cc2)cc1NC(=O)c1coc(-c2ccnc(NCC(F)(F)F)c2)n1 (centres unmarked) | IRAK4 (Homo sapiens) | A (>50% degradation) |
| NC(=O)c1nn(-c2ccc(C(=O)NCCOCCOCCOCCCc3cccc4c3CN(C3CCC(=O)NC3=O)C4=O)cc2)cc1NC(=O)c1coc(-c2ccnc(NCC3CC3)c2)n1 (centres unmarked) | IRAK4 (Homo sapiens) | A (>50% degradation) |

---

test: Pharmacokinetics in Sprague Dawley rats (plasma and brain concentrations, PK parameters); type: in vivo; conditions: Sprague-Dawley, rat, brain, iv, 3 mg/kg, Rat (Sprague Dawley) iv 3 mg/kg (IVB); brain; 4 h; Mean; read-out: brain Actual Conc.
experimental readout: concentration at 4 h (ng/g)

| molecule | experimental readout | result |
| --- | --- | --- |
| O=C1CCC(N2C(=O)c3cccc(NCCOCCOCCNCc4ccc(-n5cc(NC(=O)c6coc(-c7ccnc(NCC8CC8)c7)n6)c(C(F)F)n5)cc4)c3C2=O)C(=O)N1 (stereo not shown) | concentration at 4 h | 39.9 |

---

Biological target: IRAK4 (Homo sapiens)
Sequence (Q9NWZ3 1-460): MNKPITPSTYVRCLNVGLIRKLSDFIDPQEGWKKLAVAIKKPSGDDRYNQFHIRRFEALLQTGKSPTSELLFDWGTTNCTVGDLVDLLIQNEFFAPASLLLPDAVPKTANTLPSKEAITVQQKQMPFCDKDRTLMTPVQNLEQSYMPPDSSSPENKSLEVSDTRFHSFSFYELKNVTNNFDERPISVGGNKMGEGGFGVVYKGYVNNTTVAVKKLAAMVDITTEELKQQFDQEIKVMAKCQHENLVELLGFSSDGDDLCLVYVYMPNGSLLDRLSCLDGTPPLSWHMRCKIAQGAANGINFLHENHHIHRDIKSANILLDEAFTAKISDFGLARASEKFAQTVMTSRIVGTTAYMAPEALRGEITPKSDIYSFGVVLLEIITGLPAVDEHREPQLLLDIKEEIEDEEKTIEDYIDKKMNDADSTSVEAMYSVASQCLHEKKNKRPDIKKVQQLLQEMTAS
Test: OCI-LY-10 degradation assay (western blot, % IRAK4 degraded after 4 hours)
Assay type: cell-based
Set-up: endogenous in cells; host or cells: OCI-LY10
Conditions: OCI-LY10 cells, 4 hours, 0.1 uM compound
experimental readout: OCI-LY10 % IRAK4 Degradation (0.1 uM)

| compound | target or system | result |
| --- | --- | --- |
| CC(C)(C)[C@H](NC(=O)COCCOCCOCCNc1cccc2c1C(=O)N(C1CCC(=O)NC1=O)C2=O)C(=O)N1C[C@H](O)C[C@H]1C(=O)NCc1ccc(-n2cc(NC(=O)c3coc(-c4ccnc(NCC5CC5)c4)n3)c(C(F)F)n2)cc1 (stereo partly drawn) | IRAK4 (Homo sapiens) | C (<20% degradation) |
| CC[C@@H]1[C@H](F)C(=O)N[C@@H]1COc1ncc(C#Cc2ccc(OCCOCCOCCOCCNc3cccc4c3C(=O)N(C3CCC(=O)NC3=O)C4=O)cc2)c2cc(C(N)=O)c(OC)cc12 (stereo partly drawn) | IRAK4 (Homo sapiens) | A (>50% degradation) |
| CN(CCNCCCc1ccc2c(c1)C(=O)N(C1CCC(=O)NC1=O)C2=O)C(=O)c1ccc(-n2cc(NC(=O)c3coc(-c4ccnc(NCC5CC5)c4)n3)c(C(N)=O)n2)cc1 (stereo not drawn) | IRAK4 (Homo sapiens) | A (>50% degradation) |
| Cn1cc(-c2nc(C(=O)Nc3cn(-c4ccc(CNCCOCCOCCNc5ccc6c(c5)C(=O)N(C5CCC(=O)NC5=O)C6=O)cc4)nc3C(F)F)co2)cn1 (stereo not drawn) | IRAK4 (Homo sapiens) | C (<20% degradation) |
| O=C1CCC(N2C(=O)c3cccc(CCCOCCNCc4ccc(-n5cc(NC(=O)c6coc(-c7ccnc(NCC8CC8)c7)n6)c(C(F)F)n5)cc4)c3C2=O)C(=O)N1 (stereo not drawn) | IRAK4 (Homo sapiens) | B (>20-50% degradation) |
| O=C1CCC(N2C(=O)c3ccc(NCCOCCN4CC5(CN(CCOCCNCc6ccc(-n7cc(NC(=O)c8coc(-c9ccnc(NCC%10CC%10)c9)n8)c(C(F)F)n7)cc6)C5)C4)cc3C2=O)C(=O)N1 (stereo not drawn) | IRAK4 (Homo sapiens) | C (<20% degradation) |
| NC(=O)c1nn(-c2ccc(COCC3CCCCN3CCOCCNc3cccc4c3C(=O)N(C3CCC(=O)NC3=O)C4=O)cc2)cc1NC(=O)c1coc(-c2ccnc(NCC(F)(F)F)c2)n1 (stereo not drawn) | IRAK4 (Homo sapiens) | A (>50% degradation) |
| Cc1cc(-c2nc(C(=O)Nc3cn(-c4ccc(C(=O)NCCOCCOCCNc5cccc6c5C(=O)N(C5CCC(=O)NC5=O)C6=O)cc4)nc3C(N)=O)co2)ccn1 (stereo not drawn) | IRAK4 (Homo sapiens) | A (>50% degradation) |
| O=C1CCC(N2C(=O)c3ccc(CCOCCN4CCC(n5cc(NC(=O)c6coc(-c7ccnc(NCC8CC8)c7)n6)c(C(F)F)n5)CC4)cc3C2=O)C(=O)N1 (stereo not drawn) | IRAK4 (Homo sapiens) | B (>20-50% degradation) |
| O=C1CCC(N2C(=O)c3cccc(NCCNCCOCCNCc4ccc(-n5cc(NC(=O)c6coc(-c7ccnc(NCC8CC8)c7)n6)c(C(F)(F)F)n5)cc4)c3C2=O)C(=O)N1 (stereo not drawn) | IRAK4 (Homo sapiens) | C (<20% degradation) |
| O=C1CCC(N2C(=O)c3ccc(NC4CN(CCOCCOCCNCc5ccc(-n6cc(NC(=O)c7coc(-c8ccnc(NCC9CC9)c8)n7)c(C(F)F)n6)cc5)C4)cc3C2=O)C(=O)N1 (stereo not drawn) | IRAK4 (Homo sapiens) | B (>20-50% degradation) |
| NC(=O)c1nn(-c2ccc(CNCCCc3ccc4c(c3)C(=O)N(C3CCC(=O)NC3=O)C4=O)cc2)cc1NC(=O)c1coc(-c2ccncc2)n1 (stereo not drawn) | IRAK4 (Homo sapiens) | C (<20% degradation) |
| Cn1cc(-c2nc(C(=O)Nc3cn(-c4ccc(CNCCOCCOCCNc5cccc6c5C(=O)N(C5CCC(=O)NC5=O)C6=O)cc4)nc3C(F)F)co2)cn1 (stereo not drawn) | IRAK4 (Homo sapiens) | C (<20% degradation) |
| O=C1CCC(N2C(=O)c3cccc(OCc4cn(CCOCCOCCNCc5ccc(-n6cc(NC(=O)c7coc(-c8ccnc(NCC9CC9)c8)n7)c(C(F)F)n6)cc5)nn4)c3C2=O)C(=O)N1 (stereo not drawn) | IRAK4 (Homo sapiens) | A (>50% degradation) |
| CN(CCCCCNCCCc1cccc2c1C(=O)N(C1CCC(=O)NC1=O)C2=O)C(=O)c1ccc(-n2cc(NC(=O)c3coc(-c4ccnc(NCC5CC5)c4)n3)c(C(N)=O)n2)cc1 (stereo not drawn) | IRAK4 (Homo sapiens) | C (<20% degradation) |
| NC(=O)c1nn(-c2ccc(CNCCOCCOCCOCCCc3cccc4c3CN(C3CCC(=O)NC3=O)C4=O)cc2)cc1NC(=O)c1coc(-c2ccnc(NCC3CC3)c2)n1 (stereo not drawn) | IRAK4 (Homo sapiens) | A (>50% degradation) |
| CN(CCCc1ccc2c(c1)C(=O)N(C1CCC(=O)NC1=O)C2=O)Cc1ccc(-n2cc(NC(=O)c3coc(-c4ccnc(NCC(F)(F)F)c4)n3)c(C(F)F)n2)cc1 (stereo not drawn) | IRAK4 (Homo sapiens) | B (>20-50% degradation) |
| O=C1CCC(N2C(=O)c3ccc(NC4CCN(CCOCCOCCNCc5ccc(-n6cc(NC(=O)c7coc(-c8ccnc(NCC9CC9)c8)n7)c(C(F)F)n6)cc5)CC4)cc3C2=O)C(=O)N1 (stereo not drawn) | IRAK4 (Homo sapiens) | C (<20% degradation) |
| O=C1CCC(N2C(=O)c3ccc(CCCN4CCC(n5cc(NC(=O)c6coc(-c7ccnc(NCC8CC8)c7)n6)c(C(F)F)n5)CC4)cc3C2=O)C(=O)N1 (stereo not drawn) | IRAK4 (Homo sapiens) | C (<20% degradation) |
| O=C1CCC(N2C(=O)c3cccc(CCCNCc4ccc(-n5cc(NC(=O)c6coc(-c7ccnc(NCC8CC8)c7)n6)c(C(F)F)n5)cc4)c3C2=O)C(=O)N1 (stereo not drawn) | IRAK4 (Homo sapiens) | C (<20% degradation) |
| O=C1CCC(N2C(=O)c3cccc(NCCOCCOCCOCCOCCn4cc(NC(=O)c5coc(-c6ccnc(NCC7CC7)c6)n5)c(C(F)F)n4)c3C2=O)C(=O)N1 (stereo not drawn) | IRAK4 (Homo sapiens) | C (<20% degradation) |
